test system: Bipolaris oryzae; test: Antifungal activity against Bipolaris oryzae assessed as fungus colony inhibition at 100 ppm measured after 96 hr by agar dilution method; type: functional
Endpoint: inhibition at 100 ppm (%)
Entry rule: numbers only, all in %.

Recorded inhibition at 100 ppm, per entry:
Test smiles: S=c1nc(COc2ccc(Cl)cc2Cl)n2nc(COc3ccc(Cl)cc3)sc2n1
Tested on: Bipolaris oryzae
Recorded value: 75.4
//
Test smiles: Cc1ccc(OCc2nnc(Nc3ccccc3C(=O)O)s2)cc1
Tested on: Bipolaris oryzae
Recorded value: 39.1
//
Test smiles: O=C(O)c1ccccc1Nc1nnc(COc2ccc(Cl)cc2Cl)s1
Tested on: Bipolaris oryzae
Recorded value: 75.3
//
Test smiles: COC(=O)Nc1nc2ccccc2[nH]1
Tested on: Bipolaris oryzae
Recorded value: 85.2
//
Test smiles: O=C(COc1ccc(Cl)cc1Cl)NC(=S)Nc1nnc(COc2ccc(Cl)cc2)s1
Tested on: Bipolaris oryzae
Recorded value: 36.2

Ask: Query (compound): Cc1ccc(OCc2nn3c(=O)c4ccccc4nc3s2)cc1 ; field requested: inhibition at 100 ppm
Reply: 35

Ask: // query inhibition at 100 ppm value for entry CC(=O)NC(=S)Nc1nnc(COc2ccc(C)cc2C)s1
Reply: 38.4

Ask: Need inhibition at 100 ppm, item Cc1ccc(OCc2nn3c(C)nc(=S)nc3s2)c(C)c1
Reply: 39.3

Ask: Sample S=c1nc(COc2ccc(Cl)cc2Cl)n2nc(COc3ccc(Cl)cc3Cl)sc2n1 — what was its inhibition at 100 ppm?
Reply: 78.6

Ask: # query: inhibition at 100 ppm of entry Cc1ccc(OCc2nn3c(-c4ccc(Cl)cc4)nc(=S)nc3s2)c(C)c1
Reply: 49.1

Ask: Look up inhibition at 100 ppm: O=C(COc1ccc(Cl)cc1Cl)NC(=S)Nc1nnc(COc2ccc(Cl)cc2Cl)s1
Reply: 32

Ask: Requested field: inhibition at 100 ppm. Item: Cc1ccc(OCc2nn3c(=O)c4ccccc4nc3s2)cc1C
Reply: 38.6

Ask: Form field: reported inhibition at 100 ppm of Cc1ccc(OCc2nnc(Nc3ccccc3C(=O)O)s2)cc1C
Reply: 30.4

Ask: # get_value(readout='inhibition at 100 ppm', item= Cc1ccc(OCc2nnc(NC(=S)NC(=O)c3ccc(Cl)cc3)s2)c(C)c1 )
Reply: 32.4

Ask: Item O=c1c2ccccc2nc2sc(COc3ccccc3Cl)nn12 has what recorded inhibition at 100 ppm?
Reply: 40.1

Ask: Recorded inhibition at 100 ppm of O=C(O)c1ccccc1Nc1nnc(COc2ccccc2Cl)s1 , please.
Reply: 30.4

Ask: Request the reported inhibition at 100 ppm associated with O=c1c2ccccc2nc2sc(COc3ccc(Cl)cc3Cl)nn12
Reply: 31.8
